Sourced from patent US4978761A

targetEntity: 12-Lipoxygenase (Rattus norvegicus, UniProt F1LQ70)
Construct: from tissue; host or cells: Wistar rat platelets (PRP mixed with PPP, from citrated aortic blood)
experimentDescription: 12-Lipoxygenase inhibitory action: 12-HETE production in Wistar rat platelets (HPLC)
Assay type: cell-based
conditionParameters: 10^-7 M, read-out: 12-Lipoxygenase Inhibitory Action, % Inhibition (IE)
# label = rule met if inhibition at 0.1 µM >= 10% else rule not met

Solved cases (3 shown):
Cc1c(C)c2c(c(C)c1O)CC(C)(/C=C/c1ccccc1)O2 (stereo not drawn)    rule met
Cc1c(C)c2c(c(C)c1O)CC(C)(CBr)O2 (stereo not drawn)    rule not met
CCCCCCCCCCC/C=C\C1(C)Cc2c(C)c(O)c(C)c(C)c2O1 (stereo not drawn)    rule not met

Q. Say whether COc1cccc(/C=C\C2(C)Cc3c(C)c(O)c(C)c(C)c3O2)c1 (stereo not drawn) shows inhibition at 0.1 µM of 10% or more.
A. rule met

Q. Also, Cc1c(C)c2c(c(C)c1O)CC(C)(/C=C\Cc1ccccc1)O2 (stereo not drawn) please.
A. rule met

Q. Also, COc1ccc(/C=C\C2(C)Cc3c(C)c(O)c(C)c(C)c3O2)cc1 (stereo not drawn) please.
A. rule met

Q. Also, Cc1c(C)c2c(c(C)c1O)CC(C)(C=Cc1ccccc1)O2 (stereo not drawn) please.
A. rule met

Q. Also, Cc1c(C)c2c(c(C)c1O)CC(C)(/C=C/Cc1ccccc1)O2 (stereo not drawn) please.
A. rule met

Q. Also, Cc1c(C)c2c(c(C)c1O)CC(C)(CCc1ccc(F)cc1)O2 (stereo not drawn) please.
A. rule not met

----------
targetEntity: 12-Lipoxygenase (Rattus norvegicus)
Construct: from tissue; host or cells: Wistar rat platelets (PRP mixed with PPP, from citrated aortic blood)
Sequence (F1LQ70 1-663): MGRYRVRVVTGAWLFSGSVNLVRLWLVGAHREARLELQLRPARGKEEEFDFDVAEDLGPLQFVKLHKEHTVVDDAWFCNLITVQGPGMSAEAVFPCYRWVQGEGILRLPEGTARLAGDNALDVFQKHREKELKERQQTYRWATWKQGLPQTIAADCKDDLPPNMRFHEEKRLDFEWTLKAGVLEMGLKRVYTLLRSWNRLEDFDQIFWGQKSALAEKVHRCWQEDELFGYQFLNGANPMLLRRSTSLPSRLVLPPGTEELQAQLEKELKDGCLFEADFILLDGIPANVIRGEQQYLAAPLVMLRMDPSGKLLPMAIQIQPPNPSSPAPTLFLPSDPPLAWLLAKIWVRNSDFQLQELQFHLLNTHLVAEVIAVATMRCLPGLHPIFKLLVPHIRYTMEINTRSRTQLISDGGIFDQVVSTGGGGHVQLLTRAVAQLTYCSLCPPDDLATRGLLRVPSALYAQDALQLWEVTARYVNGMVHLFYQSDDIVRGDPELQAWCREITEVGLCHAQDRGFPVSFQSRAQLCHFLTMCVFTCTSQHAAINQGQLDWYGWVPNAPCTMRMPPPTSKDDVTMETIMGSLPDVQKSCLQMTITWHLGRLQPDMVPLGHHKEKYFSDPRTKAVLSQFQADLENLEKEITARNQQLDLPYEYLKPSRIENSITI
experimentDescription: 12-Lipoxygenase inhibitory action: 12-HETE production in Wistar rat platelets (HPLC)
Assay type: cell-based
conditionParameters: 10^-7 M, read-out: 12-Lipoxygenase Inhibitory Action, % Inhibition (IE)
measuredMetric: inhibition at 0.1 µM (%)
The reply should be a number in %, with the unit left off.

CCCCCCC/C=C\C1(C)Cc2c(C)c(O)c(C)c(C)c2O1 (stereo not drawn)    3

Q. Notebook entry, 12-Lipoxygenase (Rattus norvegicus) assay: inhibition at 0.1 µM of Cc1c(C)c2c(c(C)c1O)CC(C)(/C=C\CCc1ccccc1)O2 (stereo not drawn) = ?
A. 21

Q. Also, COc1cccc(CCC2(C)Cc3c(C)c(O)c(C)c(C)c3O2)c1 (stereo not drawn) please.
A. 7
